assay: Maximum tolerated dose followed by 7-day repeat-dose toxicology in rats (Study 700040); assay type: in vivo, rat; details: both sexes, Sprague-Dawley, rat, in vivo, inhaled or intranasal; single intranasal administration
Recorded Endpoint: MTD at 14 days (mg/kg)
Your answer is read as mg/kg, so omit the unit and give the number.

Fill in the blank: the reported MTD at 14 days of COc1ccc2[nH]cc(CCN(C)C)c2c1 [5MeODMT, 5-methoxy-N,N-dimethyltryptamine] is ____.
75

###

assay: Toxicokinetics, 14-day intranasal study in dogs (Study 62959); assay type: in vivo; settings: female, Beagle, dog, plasma, inhaled or intranasal, 0.8 mg/kg/day, Day 14, Female
Recorded Endpoint: Cmax (ng/mL)
Your answer is read as ng/mL, so omit the unit and give the number.

Fill in the blank: the reported Cmax of COc1ccc2[nH]cc(CCN(C)C)c2c1 is ____.
244
